Recorded values, source patent US20150337037A1.

Target: T1, human chemokine receptor CCR6 (human, UniProt P51684 1-374)
T1 construct: whole, on cells; gene was synthesized (codon-optimized); a C-terminal tag may be present on the expressed protein; also called CCR6 human; human CCR6
T1 sequence (looked up): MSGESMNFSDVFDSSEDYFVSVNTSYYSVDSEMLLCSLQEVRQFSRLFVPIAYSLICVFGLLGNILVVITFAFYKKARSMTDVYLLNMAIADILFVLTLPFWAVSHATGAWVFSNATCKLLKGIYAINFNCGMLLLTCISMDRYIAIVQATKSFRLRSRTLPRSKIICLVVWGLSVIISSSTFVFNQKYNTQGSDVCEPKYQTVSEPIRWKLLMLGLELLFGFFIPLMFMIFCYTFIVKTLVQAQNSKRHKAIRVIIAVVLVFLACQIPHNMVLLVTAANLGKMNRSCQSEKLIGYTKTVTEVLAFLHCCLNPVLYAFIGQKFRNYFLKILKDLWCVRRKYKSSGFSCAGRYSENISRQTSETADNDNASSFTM
Experiment: flow cytometry on cells expressing the target, IgG1 titration (repeat of Table 2)
ENDPOINT_NAME: pEC50
pEC50 here: minus log base 10 of the concentration, concentration in moles per litre.

pEC50 for MSM-R607 IgG1 (antibody, V domains shown, Fully human IgG1) VH: EVQLLESGGGLVQPGGSLRLSCAASGFTFSSYYMHWVRQAPGKGLEWVSLIAPANSDTYYADSVKGRFTISRDNSKNTLYLQMNSLRAEDTAVYYCARSSYTRHSSKRGMDYWGQGTLVTVSS VL: EIVLTQSPGTLSLSPGERATLSCRASQSVSSSYLAWYQQKPGQAPRLLIYGASSRATGIPDRFSGSGSGTDFTLTISRLEPEDFAVYYCQQAAYSPITFGQGTKVEIKR ? 8.92

What do we get for MSM-R614 IgG1 (antibody, V domains shown, Fully human IgG1) VH: EVQLLESGGGLVQPGGSLRLSCPASGFTFTRSAMSWVRQAPGKGLEWVSYINSSGGGTYYADSVKGRFTISRDNSKNTLYLQMNSLRAEDTAVYYCARARFIWGFDYWGQGTLVTVSS VL: EIVLTQSPGTLSLSPGERATLSCRASQSVSSSYLAWYQQKPGQAPRLLIYGASSRATGIPDRFSGSGSGTDFTLTISRLEPEDFAVYYCQQWYWAPVTFGQGTKVEIKR ? 8.60

Repeat with MSM-R609 IgG1 (antibody, V domains shown, Fully human IgG1) VH: EVQLLESGGGLVQPGGSLRLSCAASGFTFTASYMSWVRQAPGKGLEWVSNISPKYGNTYYADSVKGRFTISRDNSKNTLYLQMNSLRAEDTAVYYCARSIRSAKYSYYGIDYWGQGTLVTVSS VL: EIVLTQSPGTLSLSPGERATLSCRASQSVSSSYLAWYQQKPGQAPRLLIYGASSRATGIPDRFSGSGSGTDFTLTISRLEPEDFAVYYCQQSASAPVTFGQGTKVEIKR 9.00

Then what about the binder MSM-R615 IgG1 (antibody, V domains shown, Fully human IgG1) VH: EVQLLESGGGLVQPGGSLRLSCAASGFTFSSYYMHWVRQTPGKGLEWVSIISPWSSSTYYADSVKGRFTISRDNSKNTLYLQMNSLRAEDTAVYYCARSSYSWGESYKRAIDYWGQGTLVTVSS VL: EIVLTQSPGTLSLSHGERATLSCRASQSVSSSYLAWYQQKPGQAPRLLIYGASSRATGIPDRFSGSGSGTDFTLTISRLEPEDFAVYYCQQSYYSPVTFGQGTKVEIKR ? 9.00

Moving on to MSM-R617 IgG1 (antibody, V domains shown, Fully human IgG1; also called MSMR617.46) VH: EVQLLESGGGLVQPGGSLRLSCAASGFTFSGYAMHWVRQAPGKGLEWVSSIGSRRGFTSYADSVKGRFTISRDNSKNTLYLQMNSLRAEDTAVYYCARSYAYQYRGLDYWGQGTLVTVSS VL: EIVLTQSPGTLSLSPGERATLSCRASQSVSSSYLAWYQQKPGQAPRLLIYGASSRATGIPDRFSGSGSGTDFTLTISRLEPEDFAVYYCQQRSSVTFGQGTKVEIKR 8.82

Please do the same for MSM-R604 IgG1 (antibody, V domains shown, Fully human IgG1) VH: EVQLLESGGGLVQPGGSLRLSCAASGFTFTNYSMHWVRQAPGKGLEWVSLISPYSSSTYYADSMKGRFTISRDNSKNTLYLQMNSLRAEDTAVYYCARGRYYGAYSYPGFDYWGQGTLVTVSS VL: EIVLTQSPGTLSLSPGERATLSCRASQSVSSSYLAWYQQKPGQAPRLLIYGASSRATGIPDRFSGSGSGTDFTLTISRLEPEDFAVYYCQQSAKNPLTFGQGTKVEIKR as well. 8.54
